Hey, just so you know, these numbers are from patent US4877881A.

Molecular target: 5-lipoxygenase (Homo sapiens)
Construct: The formation of 5-HETE in human leukocytes is considered a measure of 5-lipoxygenase activity; endogenous in cells; host or cells: leukocytes isolated from fresh human blood
Sequence (P09917 whole entry): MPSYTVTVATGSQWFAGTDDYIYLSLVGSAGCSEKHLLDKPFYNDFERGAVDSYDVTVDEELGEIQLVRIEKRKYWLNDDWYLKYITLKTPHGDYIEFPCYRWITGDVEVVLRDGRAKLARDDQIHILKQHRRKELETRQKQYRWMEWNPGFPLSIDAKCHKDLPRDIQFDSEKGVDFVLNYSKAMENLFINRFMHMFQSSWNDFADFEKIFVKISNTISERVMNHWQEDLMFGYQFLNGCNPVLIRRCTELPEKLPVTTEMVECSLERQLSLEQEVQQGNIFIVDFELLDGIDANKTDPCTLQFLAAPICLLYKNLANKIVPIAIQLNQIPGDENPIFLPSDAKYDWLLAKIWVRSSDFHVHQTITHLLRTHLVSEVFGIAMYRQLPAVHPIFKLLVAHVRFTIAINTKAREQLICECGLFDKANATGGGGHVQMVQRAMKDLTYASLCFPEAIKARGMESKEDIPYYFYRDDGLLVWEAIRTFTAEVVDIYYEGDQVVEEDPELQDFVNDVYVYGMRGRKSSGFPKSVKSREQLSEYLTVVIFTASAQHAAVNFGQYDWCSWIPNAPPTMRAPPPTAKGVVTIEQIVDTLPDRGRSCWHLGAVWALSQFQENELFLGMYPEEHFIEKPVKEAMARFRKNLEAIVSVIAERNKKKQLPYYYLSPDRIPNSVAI
Assay: 5-Lipoxygenase Assay Using Isolated Human Leukocytes (5LOA2), 5-HETE formation
Type: cell-based
Conditions: inhibition of 5-HETE formation, arachidonic acid 20 μM, A23187 10 μM, read-out: 5-LO(IC50 in μM)
MEASUREMENT KIND: IC50

// below: answered compounds
>>> df
                                smiles_text  observed_result
0    CCOC(=O)c1cc(C=Cc2ccc(O)c(OC)c2)n[nH]1            18 µM
1  COc1cc(CCc2cc(CCc3ccc(O)c(OC)c3)[nH]n2)ccc1O            53 µM
2              COc1cc(CCc2cc(C)n[nH]2)ccc1O          > 20 µM
3     COc1cc(C=Cc2cc(-c3ccccc3)[nH]n2)ccc1O           4.3 µM
4  COc1cc(C=Cc2cc(C=Cc3ccc(O)c(OC)c3)[nH]n2)ccc1O             1 µM

# return recorded IC50 for input COc1ccc(C=Cc2cc(C)[nH]n2)cc1O
> 20 µM

----------
Biological target: cyclooxygenase (Rattus norvegicus, UniProt Q63921)
Construct: RBL-1 intact cell cyclooxygenase IC50 values; endogenous in cells
Assay: ARBC Whole Cell Cyclooxygenase Assay in RBL-1 cells (PGF2α RIA)
Settings: RBL-1 intact cell cyclooxygenase; A23187 5 μM
Here the recorded pIC50 is given for each entry.
Keep in mind that pIC50 stands for -log10 of concentration in molar terms.

The cases that follow already have their pIC50 on record.
                                   compound  observed_result
0  COC(=O)C(=Cc1cc(Br)c(O)c(Br)c1)c1cc(C)no1             5.28
1  COC(=O)C(=Cc1cc(Cl)c(O)c(Cl)c1)c1cc(C)no1             5.30
2             COc1cc(C=Cc2cc(C)n[nH]2)ccc1O             4.89
3   COC(=O)C(=Cc1cc(C)c(O)c(C)c1)c1cc(C)no1             5.66

Jot down pIC50 (cyclooxygenase (Rattus norvegicus, UniProt Q63921)) of COc1cc(C=Cc2cc(C(F)(F)F)[nH]n2)ccc1O [Example 10A] .
5.35

----------
Target: cyclooxygenase (Rattus norvegicus, UniProt Q63921)
Construct: RBL-1 intact cell cyclooxygenase IC50 values; endogenous in cells
Sequence (Q63921 27-602): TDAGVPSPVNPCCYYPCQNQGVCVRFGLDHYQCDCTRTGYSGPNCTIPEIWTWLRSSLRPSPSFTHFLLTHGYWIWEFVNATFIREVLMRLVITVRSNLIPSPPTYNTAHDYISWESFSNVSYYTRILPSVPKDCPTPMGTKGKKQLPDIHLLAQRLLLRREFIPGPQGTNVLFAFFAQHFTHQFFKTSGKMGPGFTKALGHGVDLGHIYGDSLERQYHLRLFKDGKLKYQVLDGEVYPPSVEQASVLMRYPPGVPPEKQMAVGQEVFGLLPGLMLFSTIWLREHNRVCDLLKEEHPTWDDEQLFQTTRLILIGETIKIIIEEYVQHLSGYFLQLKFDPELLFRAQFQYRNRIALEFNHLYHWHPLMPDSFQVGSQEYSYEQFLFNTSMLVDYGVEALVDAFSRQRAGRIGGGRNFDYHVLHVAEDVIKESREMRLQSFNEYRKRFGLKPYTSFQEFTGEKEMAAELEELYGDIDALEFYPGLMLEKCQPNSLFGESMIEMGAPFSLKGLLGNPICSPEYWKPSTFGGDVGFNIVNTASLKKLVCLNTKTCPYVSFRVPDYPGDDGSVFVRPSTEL
Assay: ARBC Whole Cell Cyclooxygenase Assay in RBL-1 cells (PGF2α RIA)
Conditions: RBL-1 intact cell cyclooxygenase; A23187 5 μM
Recorded pIC50, one value per entry.
Reminder that pIC50 means the negative base-10 logarithm of the concentration expressed in mol/L.

Example compounds with recorded pIC50:
                                   compound  measurement_kind  observed_result
0  COc1cc(C=Cc2cc(-c3ccccc3)no2)cc(OC)c1O [Example 32D]             pIC50             5.27
1  COc1cc(C=Cc2cc(-c3ccccc3)no2)ccc1O [Example 32E]             pIC50             5.55
2  Cc1cc(C(=Cc2cc(C(C)(C)C)c(O)c(C(C)(C)C)c2)C(=O)O)on1 [Example 51]             pIC50             5.60

Moving on to the next compound.
Supply reported pIC50 belonging to this compound: COc1cc(C=Cc2cc(C=Cc3ccc(O)c(OC)c3)[nH]n2)ccc1O [Example 1]
5.60

----------
This listing pairs compounds with measured pIC50.
Biological target: 5-lipoxygenase (Rattus norvegicus, UniProt P12527)
Construct: ARBL/ARBC Whole Cell 5-Lipoxygenase and Cyclooxygenase Assays; endogenous in cells; host or cells: RBL-1 rat basophilic leukemia cells (American Type Culture Collection)
Sequence (P12527 whole entry): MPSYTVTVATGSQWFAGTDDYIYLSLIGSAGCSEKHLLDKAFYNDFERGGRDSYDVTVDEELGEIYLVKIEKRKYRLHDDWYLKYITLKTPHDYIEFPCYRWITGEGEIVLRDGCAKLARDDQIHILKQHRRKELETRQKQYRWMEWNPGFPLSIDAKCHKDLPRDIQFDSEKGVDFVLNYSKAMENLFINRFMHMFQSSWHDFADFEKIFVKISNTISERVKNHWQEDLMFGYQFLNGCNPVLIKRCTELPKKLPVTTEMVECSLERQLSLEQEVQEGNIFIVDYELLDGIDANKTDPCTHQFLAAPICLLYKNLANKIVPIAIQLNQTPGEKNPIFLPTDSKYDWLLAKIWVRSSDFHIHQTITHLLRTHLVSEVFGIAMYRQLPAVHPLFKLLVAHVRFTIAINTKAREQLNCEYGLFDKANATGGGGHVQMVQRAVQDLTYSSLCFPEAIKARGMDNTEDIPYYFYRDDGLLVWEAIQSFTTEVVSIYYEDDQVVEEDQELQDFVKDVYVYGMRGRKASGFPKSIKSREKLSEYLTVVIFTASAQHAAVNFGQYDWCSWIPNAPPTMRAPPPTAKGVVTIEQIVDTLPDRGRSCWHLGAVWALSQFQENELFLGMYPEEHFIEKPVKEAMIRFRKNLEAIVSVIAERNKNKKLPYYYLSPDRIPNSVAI
Assay: ARBL Whole Cell 5-Lipoxygenase Assay in RBL-1 cells (LTB4 RIA)
Format: cell-based
Details: RBL-1 intact cell 5-lipoxygenase; A23187 5 μM
Source text: ARBL/ARBC Whole Cell 5-Lipoxygenase and Cyclooxygenase Assays The rat basophilic leukemia cell line (RBL-1) was obtained from the American Type Culture Collection (Rockville, Md.). Radioimmuno assay (RIA) kits of LTB4 and PGF2α were obtained from Amersham (Arlington Heights, Ill.) and Seragen (Boston, Mass.) respectively. All tissue culture media were obtained from GIBO (Gran Island, N.Y.). […]
Scale explanation: pIC50 corresponds to minus log10 of a concentration expressed in moles per litre.

These solved cases illustrate the format of a correct answer.
                                   compound  measurement_kind  observed_result
0  COc1cc(C=Cc2cc(C)n[nH]2)ccc1O [Example 5]             pIC50             6.10
1  COc1cccc(C=Cc2cc(C)no2)c1O [Example 32F]             pIC50             4.92
2  COC(=O)Cn1nc(C=Cc2cc(C(C)(C)C)c(O)c(C(C)(C)C)c2)cc1C [Example 10G-1]             pIC50             5.35
3  COc1cc(C=Cc2cc(C(F)(F)F)[nH]n2)ccc1O [Example 10A]             pIC50             5.42
4  COc1cc(C=Cc2cc(C)[nH]n2)ccc1OC(C)=O [Example 37]             pIC50             5.46
5  Cc1cc(C=Cc2cc(Cl)cc(Cl)c2O)on1 [Example 32J]             pIC50             5.33
6  Cc1cc(C=Cc2ccc(O)c(Cl)c2)n[nH]1 [Example 7]             pIC50             5.02
7  COC(=O)Cn1nc(C)cc1C=Cc1cc(C(C)(C)C)c(O)c(C(C)(C)C)c1 [Example 10G-2]             pIC50             5.39

# return pIC50 for COc1cc(C=Cc2cc(-c3ccccc3)no2)ccc1O [Example 32E] , test system: 5-lipoxygenase (Rattus norvegicus, UniProt P12527)
5.35

Please indicate recorded pIC50 of Cc1cc(C=Cc2cc(C(C)(C)C)c(O)c(C(C)(C)C)c2)n(CC(=O)O)n1 [Example 10P] measured with 5-lipoxygenase (Rattus norvegicus, UniProt P12527).
4.92

Give reported pIC50 for COC(=O)C(=Cc1cc(C)c(O)c(C)c1)c1cc(C)no1 [Example 43] (5-lipoxygenase (Rattus norvegicus, UniProt P12527))
4.77

// fetch pIC50; item: COC(=O)C(=Cc1cc(Br)c(O)c(Br)c1)c1cc(C)no1 [Example 44] ; system: 5-lipoxygenase (Rattus norvegicus, UniProt P12527)
4.92

For 5-lipoxygenase (Rattus norvegicus, UniProt P12527), give the measured pIC50 of the entry Cc1cc(C(=Cc2cc(C(C)(C)C)c(O)c(C(C)(C)C)c2)C(=O)O)on1 [Example 51]
4.70

Please report the measured pIC50 for CCOC(=O)Cn1nc(C)cc1/C=C/c1cc(OC)c(O)c(OC)c1 [Example 10D] tested on 5-lipoxygenase (Rattus norvegicus, UniProt P12527).
6.52

----------
Target: cyclooxygenase (Rattus norvegicus, UniProt Q63921)
Construct: RBL-1 intact cell cyclooxygenase IC50 values; endogenous in cells
Test: ARBC Whole Cell Cyclooxygenase Assay in RBL-1 cells (PGF2α RIA)
Settings: RBL-1 intact cell cyclooxygenase; A23187 5 μM
MEASUREMENT KIND: pIC50
// returns pIC50 (minus log10 of molar concentration), number only

Tell us which pIC50 value is on record for COC(=O)C(=Cc1cc(Br)c(O)c(OC)c1)c1cc(C)no1 [Example 46A]
4.92

Return reported pIC50. Input molecule: CCOC(=O)c1cc(C=Cc2ccc(O)c(OC)c2)n[nH]1
4.96

Please list pIC50 recorded for the molecule COC(=O)Cn1nc(C=Cc2ccc(O)c(OC)c2)cc1C [Example 10J]
4.52

Return reported pIC50. Input molecule: Cc1cc(C=Cc2ccc(O)c(Cl)c2)n[nH]1
5.17

For COc1cccc(C=Cc2cc(C)no2)c1O [Example 32F] , write its pIC50.
4.52
